Give measured IC50 for each item. Keep answers brief.
# Tested on: EJ-28 urinary bladder cancer cells
# protocol-description: MTT cell viability assay, EJ-28
# Assay type: cell-based
# measurement-setup: Homo sapiens, EJ-28, 24 h, read-out: IC50, Bladder carcinoma (EJ-28)

Asked: Dear colleague, please send me the reported IC50 for C=CCc1cc(OC)c(O)c(OC)c1 when you can.
Given back: > 50 µM

Asked: Dear colleague, please send me the reported IC50 for C=CCc1ccc(OC)cc1 when you can.
Given back: > 50 µM
